tested on: SNB-19 CNS; assay: NCI-60 one-dose screen, 48 h (100 = growth as untreated, 0 = no growth, -100 = all killed); settings: 10 µM unless noted
Compounds without any hit were thinned out: in the full panel of roughly 83,000, 20% have a hit.
Mark Met only for growth values smaller than 60%; exact matches and larger values are Not met.

Previously resolved entries follow.
CC(=O)O[C@H]1[C@@H]2OC(=O)C(CSc3ccccc3)[C@@H]2C[C@H]2O[C@]2(C)CC/C=C(\C)CCC[C@@H]1C (stereo not given in full)	Not met
O=C1NC(=S)NC(=O)C1CC(=O)n1c(-c2ccccc2)nc2ccccc21	Not met
O=C1/C(=C/C(Cl)=C/c2ccccc2)SC(=S)N1CCc1ccc(O)cc1	Met
COc1ccc(/C=C/c2nc(-c3n[nH]c(=O)n3-c3ccccc3)c3ccccc3n2)cc1	Not met
COc1ccc(CCNc2nc(SC)nc(-c3cccc([N+](=O)[O-])c3)c2C#N)cc1OC	Not met
COc1ccc2c(c1)c(-c1nonc1-c1cn(C)c3ccccc13)cn2C	Met
CN(Cc1cc(Cl)cc(Cl)c1O)Cc1cc(Cl)cc(Cl)c1O	Not met
COc1ccc(S(=O)(=O)N2CCCCC2)cc1NC(=O)c1[nH]c(C)c2c1CCCCC2=O	Met
COC[C@H](C)n1c(C2CCOCC2)nc2cnc3cc(-c4c(C)noc4C)c(OC)cc3c21	Not met

As a next step, examine the molecule that follows.
Determine whether this molecule shows growth lower than 60% (ties excluded): COc1ccc(CN2c3ccccc3Oc3ccccc32)cc1F Not met

---

test system: A498 renal; experiment: NCI-60 one-dose screen, 48 h; conditions: 10 µM unless noted
About 83,000 compounds went through this panel and 20% of them were active in at least one assay; those are over-represented in the sample as a whole. The source made the active and inactive calls. Rule for the calls: active = growth percent below 10; inactive = the rest.
Respond using exactly one of the listed classes: YES = active, NO = inactive

Previously resolved entries follow.
COc1cccc(-c2nc3sccn3c2-c2ccnc(NCCCNS(=O)(=O)c3cccc(Cl)c3)c2)c1	NO
COc1cc2c(cc1-c1c(C)noc1C)ncc1nc(-c3ccccn3)n([C@H](C)COC(F)F)c12	YES
Cc1ccc2c(C(C[N+](=O)[O-])c3ccccc3F)c(-c3ccccc3)[nH]c2c1 (centres undefined)	NO
Nc1ccc(-c2cc3c(Nc4ccc(Oc5cccc(C(F)(F)F)c5)c(Cl)c4)ncnc3s2)cc1	NO
Cn1c(O)c(N=NC(=O)c2cc(-c3ccccc3)on2)c2ccccc21	NO
Cc1ccc2oc(=O)cc(C3c4ccc([nH]4)C(c4cc(=O)oc5ccc(C)cc45)c4ccc([nH]4)C(c4cc(=O)oc5ccc(C)cc45)c4ccc([nH]4)C(c4cc(=O)oc5ccc(C)cc45)c4ccc3[nH]4)c2c1 (centres undefined)	YES
Nc1ccn(-c2ccc(Br)cc2)c(=O)n1	NO
COc1cc2c(cc1O)CC[C@@H]1[C@@H]2CC[C@]2(C)[C@@H](OCCN(C)C)CC[C@@H]12	NO

As a next step, examine the compound that follows.
Field: outcome | Entry: CCOc1nc(-c2ccccc2)cc2c(O)c(C(=O)O)[nH]c(=O)c12 NO

---

test system: BT-549 breast; experiment: NCI-60 one-dose screen, 48 h (100 = growth as untreated, 0 = no growth, -100 = all killed); conditions: 10 µM unless noted
About 83,000 compounds went through this panel and 20% of them were active in at least one assay; those are over-represented in the sample as a whole.
QUANTITY MEASURED: growth (%)
Record the value in %, omitting the unit from your answer.

Reference set, count: 4
Clc1ccc2c(NCCCNc3nc(-n4ccnc4)nc4ccccc34)ccnc2c1	82.8
COc1ccc(/C=C/C(=O)c2ccc(O)c(CN3CCN(c4cc5c(cc4F)c(=O)c(C(=O)O)cn5C4CC4)CC3)c2)cc1	17.7
Cc1ccc2c(C(C[N+](=O)[O-])c3ccco3)c(-c3ccccc3)[nH]c2c1 (stereo not given)	53.3
CSc1nc(NCCO)c(C#N)c(-c2cccc([N+](=O)[O-])c2)n1	96.6

Next item in the queue.
For Cc1oc(-c2ccc(Cl)cc2Cl)cc1C(=O)Nc1nccs1 the compound record lists growth as 107

---

Known growth of a selection of compounds
Tested on: BT-549 breast
Assay: NCI-60 one-dose screen, 48 h (100 = growth as untreated, 0 = no growth, -100 = all killed)
Conditions: 10 µM unless noted
Experimental: Growth inhibition of the BT-549 human tumor cell line is measured as a screen for anti-cancer activity. Cells are grown in 96 well plates and exposed to the test compound for 48 hours. Compounds are tested at a single concentration, which is 10^-5 M for most compounds. The reported endpoint is percent growth (GI% or GIPRCNT), where numbers from 0 - 100% represent growth inhibition, and numbers from -100% - 0 represent cell death. For example, a value of 40 represents 60% growth inhibition. […]
The panel holds about 83,000 compounds, 20% with a hit somewhere; the sample as a whole holds those more often. Activity calls are given as the source filed them. The calls were made as follows: active = growth percent below 10; inactive = the rest.

For O=C(Cc1ccc(/C=C/C(=O)c2ncc[nH]2)cc1)Nc1ccccc1 the compound record lists growth as 54.2% (inactive)

For c1ccc(CCNc2ncnc3[nH]ncc23)cc1 the compound record lists growth as 97.7% (inactive)

For CN1C(=O)C2(SCC(C(=O)NCc3ccccc3)N2C(=O)C2CCCCC2)c2ccccc21 (centres undefined) the compound record lists growth as 98.3% (inactive)

For O=C(CCl)Oc1ccc(-c2ccccc2)c(Br)c1 the compound record lists growth as 104% (inactive)

For O=C(COc1cccc(/C=C2\COc3ccc(Cl)cc3C2=O)c1)c1ccc(Cl)cc1 the compound record lists growth as 84.7% (inactive)

For COc1ccc(-n2nc(C)c3c(Nc4ccc(NC(=O)Nc5c(Cl)cccc5Cl)cc4)ncnc32)cc1 the compound record lists growth as 57.9% (inactive)

For CC[C@]1(O)C[C@@H]2CN(CCc3c([nH]c4ccccc34)[C@@](C(=O)OC)(c3cc4c(cc3OC)N(C)[C@H]3[C@@](O)(C(N)=O)[C@H](O)[C@]5(CC)[C@@H]6C[C@@H]6CN6CC[C@]43[C@@H]65)C2)C1 the compound record lists growth as 11.5% (inactive)

For COc1ccc(-c2n[nH]nc2-c2csc3ccccc23)cc1OC the compound record lists growth as 16.9% (inactive)

For Cc1cc(C)nc(SC2=C(Nc3ccc(O)cc3)C(=O)N(Cc3ccccc3)C2=O)n1 the compound record lists growth as 63.9% [40 µM] (inactive)

---

test system: MCF7 breast; experiment: NCI-60 one-dose screen, 48 h; details: 10 µM unless noted
This is part of a sample that, as a whole, favours compounds with a hit. Of some 83,000 tested, about 20% had one in any assay. Calls of active or inactive are those of the source. The calls were made as follows: active = growth percent below 10; inactive = the rest.
Respond using exactly one of the listed classes: active, inactive

Previously resolved entries follow.
Nc1n[nH]c2cc(F)c([C@@H]3Nc4ccc5[nH]ncc5c4[C@H]4C5CCC(C5)[C@@H]34)cc12 (stereo partly drawn)	inactive
Cc1[nH]c(-c2ccc3cc[nH]c3c2)c2c1C(=O)CCCC2	inactive
CCOC(=O)c1sc2nc(-c3cccc(O)c3)nc(N3CCOCC3)c2c1C	inactive

Field: outcome | Entry: COc1ccc(/C=C\c2cc(OC)c(OC)c(OC)c2)cc1OC(=O)c1cccc(Cn2cc(CCOC(=O)[C@H](N)Cc3cn(C)c4ccccc34)nn2)c1 inactive

Field: outcome | Entry: COc1cc2c(cc1-c1c(C)noc1C)ncc1nc(C3CCCC3)n([C@H](C)COC(F)F)c12 inactive

Field: outcome | Entry: CSc1nc(Nc2cccc(NC(=O)CCl)c2)c(C#N)c(-c2cccc([N+](=O)[O-])c2)n1 active

Field: outcome | Entry: CCOC(=O)c1c(C(=O)OCC)c2cc(-c3ccn4c(C(=O)c5ccccc5)c(C(=O)OCC)c(C(=O)OCC)c4c3)ccn2c1C(=O)c1ccccc1 inactive

Field: outcome | Entry: c1ccc2[nH]c(-c3ccc(Nc4nc(N5CCCC5)nc5[nH]ncc45)cc3)nc2c1 active

---

Test system: SK-MEL-28 melanoma
Assay: NCI-60 one-dose screen, 48 h
Settings: 10 µM unless noted
Protocol: Growth inhibition of the SK-MEL-28 human tumor cell line is measured as a screen for anti-cancer activity. Cells are grown in 96 well plates and exposed to the test compound for 48 hours. Compounds are tested at a single concentration, which is 10^-5 M for most compounds. The reported endpoint is percent growth (GI% or GIPRCNT), where numbers from 0 - 100% represent growth inhibition, and numbers from -100% - 0 represent cell death. For example, a value of 40 represents 60% growth inhibition. […]
Compounds without any hit were thinned out: in the full panel of roughly 83,000, 20% have a hit. Activity calls are given as the source filed them. How the source made its calls: active means growth percent below 10; inactive means the rest.
Respond using exactly one of the listed classes: active, inactive

Field: outcome | Entry: CC(=O)Oc1ccc(Cl)cc1CN(C(C)=O)C1CCCCC1 inactive

---

tested on: M14 melanoma; assay: NCI-60 one-dose screen, 48 h; conditions: 10 µM unless noted
This is part of a sample that, as a whole, favours compounds with a hit. Of some 83,000 tested, about 20% had one in any assay. Active and inactive are the calls of the source. The calls were made as follows: active = growth percent below 10; inactive = the rest.
Respond using exactly one of the listed classes: yes for active, no for inactive

Previously resolved entries follow.
CS(=O)(=O)c1ccc(-n2nc(-c3ccc(Br)cc3)c3ccccc3c2=O)cc1	no
C#CC(F)(F)[C@]1(O)CC[C@H]2[C@@H]3CCC4=CC(=O)CCC4=C3[C@@H](c3ccc(C(C)=O)cc3)C[C@@]21C	no
CC1=C[C@H]2c3c(c(O)c(O)c4oc5c(C)cccc5c(=O)c34)[C@H](c3cc(O)c(O)c4oc5c(C)cccc5c(=O)c34)[C@H]2C(C)(C)C1	no
CCCOc1cc2ccccc2cc1C(=O)Nc1nc(N)c2c(ccc3nccc32)[nH]1	yes

Field: outcome | Entry: COc1cc(C)c(C2C(C#N)=C(N)Oc3n[nH]c(-c4cccs4)c32)cc1C(C)C (centres undefined) no

Field: outcome | Entry: O=CNc1ccc2c(c1)Cc1cccc(NC=O)c1-2 no

Field: outcome | Entry: Brc1ccc(-c2csc(Nc3ccccn3)n2)cc1 no

Field: outcome | Entry: CCn1c(O)c(/C=N/NC(=O)C(C)c2ccc(CC(C)C)cc2)sc1=S (centres undefined) yes

Field: outcome | Entry: Nc1n[nH]c2ccc([C@@H]3Nc4ccc5cn[nH]c5c4[C@H]4C5CCC(C5)[C@@H]34)cc12 (some centres undefined) no

Field: outcome | Entry: CN1CCN(c2nc(NCCCNc3ccnc4cc(Cl)ccc34)c3ccccc3n2)CC1 yes

Field: outcome | Entry: CSc1ccc(SC2c3ccc(C)cc3Oc3nc(N)c(C#N)c(N)c32)cc1 (centres undefined) yes

Field: outcome | Entry: Cn1c(=O)c2c(nc3n(-c4ccc(Cl)cc4Cl)c(Sc4nc(-c5ccccc5)c(C#N)c(=O)[nH]4)cn23)n(C)c1=O no

Field: outcome | Entry: COc1ccc(CN2c3ccccc3Oc3ccccc32)cc1F no

Field: outcome | Entry: O=C1/C(=C/c2cn(-c3ccccc3)nc2-c2ccccc2)SC(=S)N1CCc1ccccc1 no

Field: outcome | Entry: CN(CCCCCl)P(=O)(OCc1ccc([N+](=O)[O-])o1)C(F)(F)c1ccc(CC(=O)NC[C@@H](O)/C=C\[C@@H](O)[C@H](CO)Cc2ccccc2)cc1 (some centres undefined) no

Field: outcome | Entry: CCOc1ccc(-n2nc(C(=O)Nc3ccccc3)nc2-c2cc(OC)c(OC)c(OC)c2)cc1 no

Field: outcome | Entry: O=c1nc2oc3ccc4ccccc4c3cc-2s1 yes

Field: outcome | Entry: C=CC(COC(c1ccccc1)(c1ccccc1)c1ccccc1)N(CC)CC (centres undefined) yes

Field: outcome | Entry: C#CCOc1ccc2ncnc(Nc3cccc(CNC(=O)C=C)c3)c2c1 no
